Listing of recorded log10 OH rate constant (cm³/molecule/s) by entry.
# test_conditions: 25.0 °C
Number only, no unit.

In the examples that follow, each entry is paired with its recorded log10 OH rate constant (cm³/molecule/s).
C1=CC2C=CC1C2: -9.92
BrCCBr: -12.6
ClCC1CO1 (stereo not given): -12.4

Qu. Would you kindly share the measured log10 OH rate constant (cm³/molecule/s) for CC=C=O ?
Ans. -10.2

Qu. Would you kindly share the measured log10 OH rate constant (cm³/molecule/s) for FC(F)(F)c1ccc(Cl)cc1 ?
Ans. -12.6

Qu. Would you kindly share the measured log10 OH rate constant (cm³/molecule/s) for C=C(C)CCC(=C)C ?
Ans. -9.92

Qu. Would you kindly share the measured log10 OH rate constant (cm³/molecule/s) for CCC ?
Ans. -11.9

Qu. Would you kindly share the measured log10 OH rate constant (cm³/molecule/s) for CCCCC ?
Ans. -11.4

Qu. Would you kindly share the measured log10 OH rate constant (cm³/molecule/s) for CC(=O)CCC(C)=O ?
Ans. -11.1

---

# test_conditions: 25.0 °C
Listing of recorded log10 OH rate constant (cm³/molecule/s) by entry.
Number only, no unit.

In the examples that follow, each entry is paired with its recorded log10 OH rate constant (cm³/molecule/s).
CC(=O)OO[N+](=O)[O-]: -13
CCCS: -10.3
CN(C)CCO: -10
CCCCC(C)(C)C: -11.3
CCC(=O)OC: -12

Qu. Would you kindly share the measured log10 OH rate constant (cm³/molecule/s) for c1ccc2ccccc2c1 ?
Ans. -10.7

Qu. Would you kindly share the measured log10 OH rate constant (cm³/molecule/s) for C1=CC=CCC=C1 ?
Ans. -10

Qu. Would you kindly share the measured log10 OH rate constant (cm³/molecule/s) for CCCCC(C)CCC (configuration not stated) ?
Ans. -11

Qu. Would you kindly share the measured log10 OH rate constant (cm³/molecule/s) for CC(C)CS ?
Ans. -10.3

Qu. Would you kindly share the measured log10 OH rate constant (cm³/molecule/s) for CCCCOCCO ?
Ans. -10.7

---

# test_conditions: 24.0 °C
measurement_kind: log10 OH rate constant (cm³/molecule/s)
Number only, no unit.

c1cscn1: -11.9

Qu. Would you kindly share the measured log10 OH rate constant (cm³/molecule/s) for c1c[nH]cn1 ?
Ans. -10.4

---

Listing of recorded log10 OH rate constant (cm³/molecule/s) by entry.
# test_conditions: 25.0 °C
Number only, no unit.

C1=CC2CCC1C2: -10.3
C=C=O: -10.8
CCN(O)CC: -10

Qu. Would you kindly share the measured log10 OH rate constant (cm³/molecule/s) for Cc1ccc(C)c(C)c1 ?
Ans. -10.5

Qu. Would you kindly share the measured log10 OH rate constant (cm³/molecule/s) for O=[N+]([O-])c1ccc2ccccc2c1 ?
Ans. -11.3

Qu. Would you kindly share the measured log10 OH rate constant (cm³/molecule/s) for C1CCOC1 ?
Ans. -10.8

---

Listing of recorded log10 OH rate constant (cm³/molecule/s) by entry.
# test_conditions: 25.0 °C
Number only, no unit.

COc1ccccc1: -10.8

Qu. Would you kindly share the measured log10 OH rate constant (cm³/molecule/s) for CC(C)=CC=C(C)C ?
Ans. -9.68

Qu. Would you kindly share the measured log10 OH rate constant (cm³/molecule/s) for Cc1ccccc1O ?
Ans. -10.4

Qu. Would you kindly share the measured log10 OH rate constant (cm³/molecule/s) for CC ?
Ans. -12.6

Qu. Would you kindly share the measured log10 OH rate constant (cm³/molecule/s) for CC1CCCCC1 ?
Ans. -11
